# IC50 values compiled below
# assay-system: adult human muscle nicotinic acetylcholine receptor (nAChR, α2βεδ) (Homo sapiens, UniProt P02708+Q04844+Q07001)
# Sequence (P02708 21-457): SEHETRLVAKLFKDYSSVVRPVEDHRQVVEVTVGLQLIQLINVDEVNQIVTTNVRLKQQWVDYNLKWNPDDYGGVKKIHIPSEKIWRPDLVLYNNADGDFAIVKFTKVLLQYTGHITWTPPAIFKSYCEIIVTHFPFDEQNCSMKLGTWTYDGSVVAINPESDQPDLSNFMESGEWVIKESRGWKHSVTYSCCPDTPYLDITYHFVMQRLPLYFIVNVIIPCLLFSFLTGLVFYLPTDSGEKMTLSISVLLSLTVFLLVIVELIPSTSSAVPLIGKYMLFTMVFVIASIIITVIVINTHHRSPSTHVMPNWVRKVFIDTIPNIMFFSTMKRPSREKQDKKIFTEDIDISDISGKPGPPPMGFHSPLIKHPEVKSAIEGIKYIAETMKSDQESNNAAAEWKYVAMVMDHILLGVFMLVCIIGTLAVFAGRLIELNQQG
# Sequence (Q04844 21-493): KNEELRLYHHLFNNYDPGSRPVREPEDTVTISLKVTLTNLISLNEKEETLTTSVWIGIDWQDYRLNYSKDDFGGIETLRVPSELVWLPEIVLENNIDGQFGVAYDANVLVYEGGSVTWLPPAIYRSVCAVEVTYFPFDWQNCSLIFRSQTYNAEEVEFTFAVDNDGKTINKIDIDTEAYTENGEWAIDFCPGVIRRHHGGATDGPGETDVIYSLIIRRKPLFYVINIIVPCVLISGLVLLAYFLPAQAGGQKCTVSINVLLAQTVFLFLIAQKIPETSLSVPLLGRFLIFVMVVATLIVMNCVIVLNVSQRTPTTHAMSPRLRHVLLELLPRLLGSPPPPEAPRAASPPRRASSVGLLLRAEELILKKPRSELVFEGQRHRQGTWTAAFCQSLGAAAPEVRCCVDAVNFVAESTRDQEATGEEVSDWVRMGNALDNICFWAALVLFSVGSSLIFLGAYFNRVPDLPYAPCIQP
# Sequence (Q07001 22-517): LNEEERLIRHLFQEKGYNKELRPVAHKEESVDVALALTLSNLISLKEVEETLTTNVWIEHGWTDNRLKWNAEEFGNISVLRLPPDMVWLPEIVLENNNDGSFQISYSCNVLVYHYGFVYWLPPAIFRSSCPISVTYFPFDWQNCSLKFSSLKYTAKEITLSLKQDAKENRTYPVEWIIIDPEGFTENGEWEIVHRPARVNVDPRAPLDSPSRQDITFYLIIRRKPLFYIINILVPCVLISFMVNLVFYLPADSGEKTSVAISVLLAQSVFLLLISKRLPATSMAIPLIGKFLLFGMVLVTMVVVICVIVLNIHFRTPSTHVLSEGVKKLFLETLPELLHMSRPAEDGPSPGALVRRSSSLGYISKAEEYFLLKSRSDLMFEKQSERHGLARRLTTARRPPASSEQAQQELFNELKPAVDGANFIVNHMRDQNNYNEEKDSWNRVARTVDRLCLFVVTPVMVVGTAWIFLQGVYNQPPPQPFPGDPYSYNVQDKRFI
# Sequence (P11230 24-501 partner): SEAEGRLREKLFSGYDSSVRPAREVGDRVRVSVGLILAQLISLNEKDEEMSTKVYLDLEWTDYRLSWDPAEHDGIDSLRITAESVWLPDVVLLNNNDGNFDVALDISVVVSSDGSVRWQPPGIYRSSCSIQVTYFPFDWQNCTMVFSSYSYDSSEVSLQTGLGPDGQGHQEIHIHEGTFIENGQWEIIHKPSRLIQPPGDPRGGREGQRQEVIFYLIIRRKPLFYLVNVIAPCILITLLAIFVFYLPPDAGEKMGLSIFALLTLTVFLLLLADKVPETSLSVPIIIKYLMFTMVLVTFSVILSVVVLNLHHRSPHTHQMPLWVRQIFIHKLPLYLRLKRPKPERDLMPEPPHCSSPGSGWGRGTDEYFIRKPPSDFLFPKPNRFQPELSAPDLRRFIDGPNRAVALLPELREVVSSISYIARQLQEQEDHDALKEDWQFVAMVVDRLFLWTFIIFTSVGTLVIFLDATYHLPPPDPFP
# run-parameters: 300 μM ACh, -50 mV, pH 7.3, room temperature; competitive
readout-type: IC50 (µM)

COc1ccc(CC2c3cc(OC)c(OC)cc3CC[N+]2(C)CCC(=O)OCCCCCOC(=O)CC[N+]2(C)CCc3cc(OC)c(OC)cc3C2Cc2ccc(OC)c(OC)c2)cc1OC (stereo not shown) [atracurium]; 0.017
CC(=O)O[C@H]1C[C@@H]2CC[C@@H]3[C@H](CC[C@@]4(C)[C@H]3C[C@H]([N+]3(C)CCCCC3)[C@@H]4OC(C)=O)[C@@]2(C)C[C@@H]1N1CCCCC1 [vecuronium]; 0.015
COc1ccc2cc1Oc1cc3c(cc1OC)CC[N+](C)(C)[C@H]3Cc1ccc(cc1)Oc1c(OC)c(OC)cc3c1[C@@H](C2)[N+](C)(C)CC3 [metocurine]; 0.018
C=CC[N+]1([C@H]2C[C@H]3[C@@H]4CC[C@H]5C[C@H](O)[C@@H](N6CCOCC6)C[C@]5(C)[C@H]4CC[C@]3(C)[C@H]2OC(C)=O)CCCC1 [rocuronium]; 0.017

----------
# assay-system: adult human muscle nicotinic acetylcholine receptor (nAChR, α2βεδ) (Homo sapiens, UniProt P02708+Q04844+Q07001)
# assay-details: cell-based
# IC50 values compiled below
readout-type: IC50 (nM)

COc1ccc(C[C@@H]2c3cc(OC)c(OC)cc3CC[N@+]2(C)CCC(=O)OCCCCCOC(=O)CC[N@@+]2(C)CCc3cc(OC)c(OC)cc3[C@H]2Cc2ccc(OC)c(OC)c2)cc1OC [cisatracurium]; 10
COc1cc2c3cc1Oc1cc(ccc1O)C[C@@H]1c4c(cc(OC)c(O)c4Oc4ccc(cc4)C[C@@H]3N(C)CC2)CC[N+]1(C)C [(+)-tubocurarine]; 24
CC(=O)O[C@H]1C[C@@H]2CC[C@@H]3[C@H](CC[C@@]4(C)[C@H]3C[C@H]([N+]3(C)CCCCC3)[C@@H]4OC(C)=O)[C@@]2(C)C[C@@H]1[N+]1(C)CCCCC1; 6.3
